Experiment notes: Binding affinity to human PCFT expressed in Chinese hamster R2/PCFT4 cells assessed as cell growth inhibition after 96 hrs by CellTiter-Blue assay
Assay metric: IC50 (nM)

Completed entries (count: 2):
Annotate the compound `Nc1nc2[nH]cc(CCCCCc3ccc(C(=O)N[C@@H](CCC(=O)O)C(=O)O)s3)c2c(=O)[nH]1` with its measured IC50.
57

Annotate the compound `Nc1nc2[nH]cc(CCc3ccc(C(=O)N[C@@H](CCC(=O)O)C(=O)O)s3)c2c(=O)[nH]1` with its measured IC50.
80

I = Nc1nc2[nH]cc(CCCCc3ccc(C(=O)N[C@@H](CCC(=O)O)C(=O)O)s3)c2c(=O)[nH]1
II = Nc1nc2[nH]cc(CCCc3ccc(C(=O)N[C@@H](CCC(=O)O)C(=O)O)s3)c2c(=O)[nH]1
Which value of IC50 is numerically greater: that of I or that of II ? Write the label of whichever entry you select.
II

Source of measurements: BindingDB's records for doi:10.1021/jm501787c
